src = the supplement of paper PMC10307832

Test system: NCI-H2228
Assay: relative viability (nuclei count vs DMSO), 5 days (fraction); higher = more cells survive
Conditions: first compound 0.006325 µM
Under this convention, YES denotes relative viability strictly below 0.2 and NO denotes relative viability at or above 0.2.

Data request: Lab note: confirm whether the reported relative viability for this compound is below 0.2, equality not counting. compound: CC(=O)O[C@@]12CO[C@@H]1C[C@H](O)[C@@]1(C)C(=O)[C@H](O)C3=C(C)[C@@H](OC(=O)[C@H](O)[C@@H](NC(=O)OC(C)(C)C)c4ccccc4)C[C@@](O)([C@@H](OC(=O)c4ccccc4)[C@H]21)C3(C)C [Docetaxel] + CC(C)C[C@H](NC(=O)[C@H](Cc1ccccc1)NC(=O)c1cnccn1)B(O)O [Bortezomib] (partner 0.002 µM)
Data returned: NO

Data request: Now the compound CC(=O)O[C@@]12CO[C@@H]1C[C@H](O)[C@@]1(C)C(=O)[C@H](O)C3=C(C)[C@@H](OC(=O)[C@H](O)[C@@H](NC(=O)OC(C)(C)C)c4ccccc4)C[C@@](O)([C@@H](OC(=O)c4ccccc4)[C@H]21)C3(C)C [Docetaxel] + N=C(N)NC(=N)NCCc1ccccc1 [Phenformin] (partner 250 µM)
Data returned: YES

Data request: Now this one: CC(=O)O[C@@]12CO[C@@H]1C[C@H](O)[C@@]1(C)C(=O)[C@H](O)C3=C(C)[C@@H](OC(=O)[C@H](O)[C@@H](NC(=O)OC(C)(C)C)c4ccccc4)C[C@@](O)([C@@H](OC(=O)c4ccccc4)[C@H]21)C3(C)C [Docetaxel] + CC1(C)CCC(c2ccc(Cl)cc2)=C(CN2CCN(c3ccc(C(=O)NS(=O)(=O)c4ccc(N[C@H](CCN5CCOCC5)CSc5ccccc5)c(S(=O)(=O)C(F)(F)F)c4)cc3)CC2)C1 [Navitoclax] (partner 0.5 µM)
Data returned: YES

Data request: Repeat with CC(=O)O[C@@]12CO[C@@H]1C[C@H](O)[C@@]1(C)C(=O)[C@H](O)C3=C(C)[C@@H](OC(=O)[C@H](O)[C@@H](NC(=O)OC(C)(C)C)c4ccccc4)C[C@@](O)([C@@H](OC(=O)c4ccccc4)[C@H]21)C3(C)C [Docetaxel] + CCNC(=O)c1noc(-c2cc(C(C)C)c(O)cc2O)c1-c1ccc(CN2CCOCC2)cc1 [Luminespib] (partner 0.01 µM)
Data returned: YES

---

Tested on: NCI-H322M
Experiment: relative viability (nuclei count vs DMSO), 5 days (fraction); higher = more cells survive
Details: first compound 0.05 µM
Metric Name: relative viability
// return just the number, without any unit appended

compound="COc1cc2nccc(Oc3ccc(NC(=O)Nc4cc(C)on4)c(Cl)c3)c2cc1OC [Tivozanib] + CS(=O)(=O)N1CCN(Cc2cc3nc(-c4cccc5[nH]ncc45)nc(N4CCOCC4)c3s2)CC1 [Pictilisib] (partner 1 µM)" measured_value=0.529

Data request: Any idea what relative viability was measured for Nc1ccn([C@@H]2O[C@H](CO)[C@@H](O)[C@@H]2O)c(=O)n1 [Cytarabine] + C[C@@H](Oc1cc(-c2cnn(C3CCNCC3)c2)cnc1N)c1c(Cl)ccc(F)c1Cl [Crizotinib] (partner 1 µM) ?
Data returned: 0.534

Data request: Here is the next compound: COc1cc2nccc(Oc3ccc(NC(=O)Nc4cc(C)on4)c(Cl)c3)c2cc1OC [Tivozanib] + CC1(C)CCC(c2ccc(Cl)cc2)=C(CN2CCN(c3ccc(C(=O)NS(=O)(=O)c4ccc(N[C@H](CCN5CCOCC5)CSc5ccccc5)c(S(=O)(=O)C(F)(F)F)c4)cc3)CC2)C1 [Navitoclax] (partner 0.5 µM)
Data returned: 1.28

Data request: And COc1cc2nccc(Oc3ccc(NC(=O)Nc4cc(C)on4)c(Cl)c3)c2cc1OC [Tivozanib] + O=C(CCCCCCC(=O)Nc1ccccc1)NO [Vorinostat] (partner 1 µM) ?
Data returned: 0.87

Data request: Subsequent entry: COc1cc2nccc(Oc3ccc(NC(=O)Nc4cc(C)on4)c(Cl)c3)c2cc1OC [Tivozanib] + CCNC(=O)c1noc(-c2cc(C(C)C)c(O)cc2O)c1-c1ccc(CN2CCOCC2)cc1 [Luminespib] (partner 0.01 µM)
Data returned: 0.958

Data request: Please give the result for COc1cc2nccc(Oc3ccc(NC(=O)Nc4cc(C)on4)c(Cl)c3)c2cc1OC [Tivozanib] + O=C(c1cc(Cc2n[nH]c(=O)c3ccccc23)ccc1F)N1CCN(C(=O)C2CC2)CC1 [Olaparib] (partner 8 µM) too.
Data returned: 0.755
